The entries below come with measured protein stability index values attached.
B1: TFE3 (parent)
chain: FPSDHLGDLGDPFHLGLEDILMEE

Variants of: B1
methodSummary: protein stability index of a GFP-peptide fusion (GPS, HEK-293T) (PSI 1-6); higher = more stable;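 note: lentivirally expressed fusions sorted by FACS into six bins by GFP to DsRed ratio, PSI derived from sequencing read proportions per bin multiplied by bin number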
assayConditions: c terminus: a fixed tail appended

| chainSequence | protein stability index |
| --- | --- |
| FPSDHLGDLGDPFHLGHEDILMEE [L17H] | 4.29 |
| FPSDHLGDLGGPFHLGLEDILMEE [D11G] | 3.52 |
| FPSDHLCDLGDPFHLGLEDILMEE [G7C] | 2.89 |
| FPSDHLGALGDPFHLGLEDILMEE [D8A] | 2.96 |
| FPSDHLGDLGDPFHEGLEDILMEE [L15E] | 4.21 |
| FPSDHLGDLGDPFHLGLVDILMEE [E18V] | 3.22 |
| FPSDDLGDLGDPFHLGLEDILMEE [H5D] | 4.42 |
| FPSDHLGDLGDPFHLGLEDISMEE [L21S] | 3.69 |
| FPSDHLGDLGTPFHLGLEDILMEE [D11T] | 2.92 |
| FPSDHLGDLGDPFHLGLEDIRMEE [L21R] | 3.78 |
| FPSDHLGDLGDPFHLGLEDILMVE [E23V] | 3.85 |
| FPSDHLGDLGDPFHLGLEDIHMEE [L21H] | 4.08 |
| FPSDHLGDLGDPFHLGLNDILMEE [E18N] | 3.12 |
| FPSDHLGDLGDRFHLGLEDILMEE [P12R] | 4.1 |
| FPSDHRGDLGDPFHLGLEDILMEE [L6R] | 2.98 |
| EPSDHLGDLGDPFHLGLEDILMEE [F1E] | 4.96 |
| FPSDHLGDLGDPFHLGLECILMEE [D19C] | 2.91 |
| FPSDHQGDLGDPFHLGLEDILMEE [L6Q] | 3.6 |
| FPSDHLGDLEDPFHLGLEDILMEE [G10E] | 3.67 |
| FPSDHLGQLGDPFHLGLEDILMEE [D8Q] | 3.07 |
| FPSDHLGDLGDPHHLGLEDILMEE [F13H] | 5.09 |

Data origin, for the record: the supplement of paper PMC10567573
